IC50 by entry:
- System: PIM3 (Homo sapiens, UniProt Q86V86)
- Test name: Radiometric kinase assay (HotSpot)
# output: bare number, implied unit µM

Below: 2 compounds and their reported IC50.
{"Compound": "CN1CCN(c2nc3c(Br)c(Br)c(Br)c(Br)c3[nH]2)CC1", "Value observed": 0.0841}
{"Compound": "Brc1c(Br)c(Br)c2[nH]c(N3CCNCC3)nc2c1Br", "Value observed": 0.042}

Would you kindly look at the next entry?
Give recorded IC50 with PIM3 (Homo sapiens, UniProt Q86V86) for the following compound: NCC(O)CNc1nc2c(Br)c(Br)c(Br)c(Br)c2[nH]1 (stereo not drawn)
0.0076

---

- Test system: human prostate carcinoma DU145 cells
- Test name: Growth inhibition test (MTS)
- Type: cell-based
- Run parameters: 72 hours
Cytotoxicity in MTS assay (ED50) by entry:
# output: bare number, implied unit µM

{"Structure smiles": "Brc1c(Br)c(Br)c2[nH]c(NCCN3CCCCC3)nc2c1Br", "Cytotoxicity in MTS assay (ED50), µM": 4.1}
{"Structure smiles": "CN1CCN(c2nc3c(Br)c(Br)c(Br)c(Br)c3[nH]2)CC1", "Cytotoxicity in MTS assay (ED50), µM": 9.54}

Would you kindly look at the next entry?
Query (compound): Brc1c(Br)c(Br)c2[nH]c(N3CCNCC3)nc2c1Br ; field requested: Cytotoxicity in MTS assay (ED50)
9.27

---

- System: PIM1 (Homo sapiens)
- Sequence (P11309 whole entry): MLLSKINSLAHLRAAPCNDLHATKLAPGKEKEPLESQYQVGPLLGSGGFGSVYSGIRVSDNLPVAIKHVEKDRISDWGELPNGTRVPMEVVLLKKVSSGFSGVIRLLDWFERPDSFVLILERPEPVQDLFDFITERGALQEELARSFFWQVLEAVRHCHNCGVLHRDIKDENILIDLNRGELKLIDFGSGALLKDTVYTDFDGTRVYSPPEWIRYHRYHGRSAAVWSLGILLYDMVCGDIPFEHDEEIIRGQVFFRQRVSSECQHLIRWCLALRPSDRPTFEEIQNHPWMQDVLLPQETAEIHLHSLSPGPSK
- Test name: Radiometric kinase assay (HotSpot)
- Run parameters: read-out: Inhibitory activity (IC50 in nM) in radiometric cell free assay, Pim-1; ATP 1 μM; peptide 5 μM
IC50 by entry:
# output: bare number, implied unit nM

{"Compound": "Brc1c(Br)c(Br)c2[nH]cnc2c1Br [TBI, reference compound]", "IC50 (nM)": 1670}
{"Compound": "CN(C)c1nc2c(Br)c(Br)c(Br)c(Br)c2[nH]1 [DMAT, reference compound]", "IC50 (nM)": 64.6}
{"Compound": "Brc1c(Br)c(Br)c2c(Br)n[nH]c2c1Br [Compound K64, reference compound]", "IC50 (nM)": 308}
{"Compound": "CN(C)c1nc2c(Br)c(Br)c(Br)c(Br)c2n1CC(=O)O [Compound K66, reference compound]", "IC50 (nM)": 194}

Would you kindly look at the next entry?
Query (compound): Brc1c(Br)c(Br)c2[nH]nnc2c1Br [TBB, reference compound] ; field requested: IC50
1840

---

- System: UniProtKB P11309
- Test name: Radiometric kinase assay (HotSpot)
- Run parameters: ratio of IC50 values
Rule: True for Selectivity for Pim-1 over CK2α not less than 10, False for anything less.

{"Structure smiles": "Brc1c(Br)c(Br)c2[nH]c(N3CCNCC3)nc2c1Br", "System": "UniProtKB P11309", "Class assignment": "False"}

Is Selectivity for Pim-1 over CK2α for Brc1c(Br)c(Br)c2[nH]c(NCCCN3CCCCC3)nc2c1Br at or above 10?
False

Is Selectivity for Pim-1 over CK2α for Brc1c(Br)c(Br)c2[nH]c(Nc3ccccc3)nc2c1Br at or above 10?
False

Is Selectivity for Pim-1 over CK2α for Brc1c(Br)c(Br)c2[nH]c(NCCN3CCCC3)nc2c1Br at or above 10?
True

Is Selectivity for Pim-1 over CK2α for CN1CCN(c2nc3c(Br)c(Br)c(Br)c(Br)c3[nH]2)CC1 at or above 10?
True
